- experiment_description: Stability of the compound in simulated gastric acid at pH 1.2 measured after 1 hr by LC-MS/MS analysis
- Assay type: ADME
- condition_info: read-out: Stability
property_label: remaining at 1 h (%)

INSERT INTO assay_data (molecule, property_label, unit_name, test_value) VALUES
  ('COc1cccc(C2CC(=O)c3cc(NC(=O)c4cc(OC)c(OC)c(OC)c4)ccc3O2)c1 (racemic)', 'remaining at 1 h', '%', 69);

---

- experiment_description: MRT in Sprague-Dawley rat at 5 mg/kg, po by LC-MS/MS analysis
- Type: ADME, organism-based
- condition_info: in vivo
property_label: MRT (h)

INSERT INTO results (compound, test_value) VALUES
  ('COc1cccc(C2CC(=O)c3cc(NC(=O)c4cc(OC)c(OC)c(OC)c4)ccc3O2)c1 (racemic)', 7.68);
